Biological target: ABCB4 WT (Homo sapiens, UniProt P21439)
Sequence (P21439 whole entry): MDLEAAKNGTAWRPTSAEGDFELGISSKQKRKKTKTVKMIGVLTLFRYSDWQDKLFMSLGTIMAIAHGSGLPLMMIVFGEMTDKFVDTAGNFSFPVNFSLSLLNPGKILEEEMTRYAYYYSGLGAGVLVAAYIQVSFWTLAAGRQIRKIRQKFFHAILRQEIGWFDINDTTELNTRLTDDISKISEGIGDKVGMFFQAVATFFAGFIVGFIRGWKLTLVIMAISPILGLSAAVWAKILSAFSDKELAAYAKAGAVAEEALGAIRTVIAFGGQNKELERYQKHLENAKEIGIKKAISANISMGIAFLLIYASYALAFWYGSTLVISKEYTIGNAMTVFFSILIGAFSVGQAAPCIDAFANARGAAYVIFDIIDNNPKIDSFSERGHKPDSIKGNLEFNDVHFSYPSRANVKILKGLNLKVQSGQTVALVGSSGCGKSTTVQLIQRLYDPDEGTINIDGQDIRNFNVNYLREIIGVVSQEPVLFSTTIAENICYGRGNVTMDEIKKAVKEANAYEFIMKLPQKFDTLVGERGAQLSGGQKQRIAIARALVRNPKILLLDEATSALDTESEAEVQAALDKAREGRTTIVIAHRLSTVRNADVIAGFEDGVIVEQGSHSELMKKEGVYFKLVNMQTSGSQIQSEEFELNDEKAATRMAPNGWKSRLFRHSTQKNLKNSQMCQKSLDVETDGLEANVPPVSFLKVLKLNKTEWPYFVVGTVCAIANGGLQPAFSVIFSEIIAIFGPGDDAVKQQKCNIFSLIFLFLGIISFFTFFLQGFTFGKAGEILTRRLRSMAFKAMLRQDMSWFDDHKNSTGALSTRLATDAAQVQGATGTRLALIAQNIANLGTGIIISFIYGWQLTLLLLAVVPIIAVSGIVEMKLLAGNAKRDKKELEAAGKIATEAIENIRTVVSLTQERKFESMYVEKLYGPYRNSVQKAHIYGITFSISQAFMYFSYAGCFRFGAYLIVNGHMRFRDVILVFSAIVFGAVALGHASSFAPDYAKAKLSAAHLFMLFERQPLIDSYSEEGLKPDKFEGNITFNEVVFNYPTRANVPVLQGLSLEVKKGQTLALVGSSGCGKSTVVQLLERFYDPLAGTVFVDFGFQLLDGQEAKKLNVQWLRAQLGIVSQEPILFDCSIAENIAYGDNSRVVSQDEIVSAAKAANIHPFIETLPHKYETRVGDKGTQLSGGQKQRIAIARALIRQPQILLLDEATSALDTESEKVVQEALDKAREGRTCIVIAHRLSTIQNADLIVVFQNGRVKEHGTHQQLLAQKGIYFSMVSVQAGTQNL
Experiment: ABCB4 WT assay: HiBit protein expression
Details: HEK-293 cells stably expressing HiBit-tagged ABCB4 WT; 24 h treatment; top concentration 30 μM; read-out: ABCB4 WT EC50, Emax
Entries and their EC50

Observe how each entry below is paired with its result.
compound | EC50
Cc1cc(C)c(Oc2nc(-c3cncc(Cl)c3)ccc2NS(=O)(=O)C2COC2)c(C)n1 | < 25 µM
Cc1cc(C)c(Oc2nc(-c3cncc(Cl)c3)ccc2S(=O)(=O)NC(c2ccccn2)C(F)(F)F)c(C)c1 (single isomer, unassigned) [Compound I-79] | ≥ 25 µM
CC(=O)N1CCN(c2ccc(NS(C)(=O)=O)c(Oc3c(C)cc(C)cc3C)n2)CC1 | ≥ 25 µM

Switching to the query record.
Query: Please give the measured EC50 for this compound: Cc1cc(C(F)(F)F)nc(C2CC2)c1Oc1nc(-c2cncc(C#N)c2)ccc1S(=N)(=O)c1cccnn1 (stereo not shown)
Reply: < 1 µM

###

Entries and their EC50
Target: ABCA4 P1380L (Homo sapiens, UniProt P78363, P1380L)
Construct: expressed in transfected cells
Sequence (P78363 whole entry P1380L): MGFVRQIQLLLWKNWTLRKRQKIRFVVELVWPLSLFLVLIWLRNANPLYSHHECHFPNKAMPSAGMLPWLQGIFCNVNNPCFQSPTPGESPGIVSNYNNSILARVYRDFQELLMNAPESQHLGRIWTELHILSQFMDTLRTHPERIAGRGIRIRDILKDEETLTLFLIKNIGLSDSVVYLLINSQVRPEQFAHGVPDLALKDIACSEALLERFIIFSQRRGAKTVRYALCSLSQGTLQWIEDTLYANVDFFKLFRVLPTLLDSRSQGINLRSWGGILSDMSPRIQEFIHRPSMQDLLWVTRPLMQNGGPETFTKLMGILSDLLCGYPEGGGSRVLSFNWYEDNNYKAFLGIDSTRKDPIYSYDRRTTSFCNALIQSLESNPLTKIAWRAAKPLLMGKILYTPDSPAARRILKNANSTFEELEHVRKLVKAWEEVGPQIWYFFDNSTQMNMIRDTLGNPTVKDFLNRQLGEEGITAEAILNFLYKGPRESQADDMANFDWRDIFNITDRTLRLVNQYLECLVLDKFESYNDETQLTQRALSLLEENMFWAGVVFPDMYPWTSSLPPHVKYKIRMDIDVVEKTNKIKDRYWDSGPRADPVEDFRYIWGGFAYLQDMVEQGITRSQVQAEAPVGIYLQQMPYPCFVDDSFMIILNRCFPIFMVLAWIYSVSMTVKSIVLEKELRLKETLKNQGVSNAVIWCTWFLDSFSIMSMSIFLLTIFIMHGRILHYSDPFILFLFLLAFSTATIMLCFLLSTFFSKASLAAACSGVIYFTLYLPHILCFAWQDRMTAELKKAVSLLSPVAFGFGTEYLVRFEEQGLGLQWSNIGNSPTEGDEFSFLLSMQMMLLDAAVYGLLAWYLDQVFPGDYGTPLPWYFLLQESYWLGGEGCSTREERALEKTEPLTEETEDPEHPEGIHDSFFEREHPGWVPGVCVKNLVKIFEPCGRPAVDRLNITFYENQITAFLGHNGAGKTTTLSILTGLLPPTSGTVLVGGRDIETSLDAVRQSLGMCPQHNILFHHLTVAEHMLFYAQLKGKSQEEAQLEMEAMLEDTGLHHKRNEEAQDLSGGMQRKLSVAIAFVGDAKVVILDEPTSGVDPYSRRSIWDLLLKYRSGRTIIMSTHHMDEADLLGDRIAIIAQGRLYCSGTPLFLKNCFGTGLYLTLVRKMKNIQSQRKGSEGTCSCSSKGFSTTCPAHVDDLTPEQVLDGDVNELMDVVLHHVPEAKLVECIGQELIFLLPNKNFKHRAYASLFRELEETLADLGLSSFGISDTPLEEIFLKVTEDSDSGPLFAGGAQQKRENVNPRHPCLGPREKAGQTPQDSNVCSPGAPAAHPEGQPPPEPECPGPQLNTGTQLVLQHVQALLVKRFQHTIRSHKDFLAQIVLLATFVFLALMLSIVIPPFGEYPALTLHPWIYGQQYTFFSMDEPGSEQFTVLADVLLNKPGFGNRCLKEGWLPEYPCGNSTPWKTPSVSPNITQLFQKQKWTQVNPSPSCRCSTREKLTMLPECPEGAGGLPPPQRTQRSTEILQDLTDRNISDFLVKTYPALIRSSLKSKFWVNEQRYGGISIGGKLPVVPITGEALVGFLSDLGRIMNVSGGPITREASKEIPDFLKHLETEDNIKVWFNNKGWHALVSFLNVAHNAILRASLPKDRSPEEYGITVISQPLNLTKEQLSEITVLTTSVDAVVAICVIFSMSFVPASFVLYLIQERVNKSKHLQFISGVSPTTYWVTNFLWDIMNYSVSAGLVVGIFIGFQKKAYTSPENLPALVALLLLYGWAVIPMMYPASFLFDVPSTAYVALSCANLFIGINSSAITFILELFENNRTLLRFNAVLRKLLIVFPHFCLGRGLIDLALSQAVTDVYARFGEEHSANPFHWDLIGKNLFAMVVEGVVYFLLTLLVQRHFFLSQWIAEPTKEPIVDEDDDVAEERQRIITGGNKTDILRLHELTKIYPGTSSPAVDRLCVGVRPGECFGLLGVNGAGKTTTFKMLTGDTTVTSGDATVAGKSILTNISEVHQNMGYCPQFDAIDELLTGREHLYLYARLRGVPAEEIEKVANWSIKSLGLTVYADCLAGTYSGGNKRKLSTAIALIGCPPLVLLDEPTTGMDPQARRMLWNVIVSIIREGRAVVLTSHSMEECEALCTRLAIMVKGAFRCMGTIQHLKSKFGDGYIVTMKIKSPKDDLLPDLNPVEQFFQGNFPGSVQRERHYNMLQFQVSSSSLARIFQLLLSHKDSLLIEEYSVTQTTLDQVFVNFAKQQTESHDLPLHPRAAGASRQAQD
Assay: A4 correction dose-response assay: ABCA4 P1380L HiBit protein expression
Type: cell-based
Details: HEK-293 cells stably expressing HiBit-tagged ABCA4 P1380L; 24 h treatment; top concentration 30 μM; read-out: ABCA4 P1380L EC50, Emax

Query: Please give the measured EC50 for this compound: Cc1cc(C)c(Oc2nc(-c3cccc(Cl)c3)ccc2S(=O)(=O)NC2CCOC2)c(C)c1 (stereo not shown)
Reply: 1000 to 10000 nM

Query: Please give the measured EC50 for this compound: `COC(=O)N1CCN(c2ccc(NS(C)(=O)=O)c(Oc3c(C)cc(C)cc3C)n2)CC1`
Reply: > 25000 nM

Query: Please give the measured EC50 for this compound: `CC(=O)N1CCN(c2ccc(NS(C)(=O)=O)c(Oc3c(C)cc(C)cc3C)n2)CC1`
Reply: > 25000 nM

Query: Please give the measured EC50 for this compound: `CNS(=O)(=O)c1ccc(-c2cncc(C#N)c2)nc1Oc1c(C)cc(C)cc1C`
Reply: < 1000 nM

Query: Please give the measured EC50 for this compound: `C#Cc1cncc(-c2ccc(NS(C)(=O)=O)c(Oc3c(C)cc(C)nc3C)n2)c1`
Reply: < 1000 nM

Query: Please give the measured EC50 for this compound: `Cc1cc(C)c(Oc2nc(-c3cncc(N4CC(F)(F)C4)c3)ccc2NS(C)(=O)=O)c(C)n1`
Reply: > 25000 nM

Query: Please give the measured EC50 for this compound: `Cc1cc(C)c(Oc2nc(-c3cncc(C(N)=O)c3)ccc2NS(C)(=O)=O)c(C2CC2)n1`
Reply: < 1000 nM

Query: Please give the measured EC50 for this compound: `Cc1cc(C)c(Oc2nc(-c3cncc(Cl)c3)cnc2S(N)(=O)=O)c(C)c1Cl`
Reply: 1000 to 10000 nM

Query: Please give the measured EC50 for this compound: `Cc1cc(C)c(Oc2nc(-c3cncc(Cl)c3)ncc2NS(C)(=O)=O)c(C)n1`
Reply: < 1000 nM

Query: Please give the measured EC50 for this compound: `Cc1cc(C2CC2)nc(C2CC2)c1Oc1nc(-c2cncc(C#N)c2)ccc1N(C)S(C)(=O)=O`
Reply: 1000 to 10000 nM

Query: Please give the measured EC50 for this compound: `Cc1cc(C)c(Oc2nc(-c3cncc(C#N)c3)ccc2NS(C)(=O)=O)c(OC2CC2)n1`
Reply: < 1000 nM

Query: Please give the measured EC50 for this compound: `Cc1cc(C)c(Oc2nc(-c3cncc(Cl)c3)ccc2NS(=O)(=O)C(C)(C)C)c(C)c1`
Reply: > 25000 nM

Query: Please give the measured EC50 for this compound: COC1CC(S(=O)(=O)Nc2ccc(-c3cncc(Cl)c3)nc2Oc2c(C)cc(C)cc2C)C1 (stereo not shown)
Reply: < 1000 nM

Query: Please give the measured EC50 for this compound: Cc1cc(C(F)(F)F)nc(C2CC2)c1Oc1nc(-c2cncc(C#N)c2)ccc1S(=N)(=O)c1cccnc1 (stereo not shown)
Reply: 1000 to 10000 nM

Query: Please give the measured EC50 for this compound: `Cc1cc(C)c(Oc2nc(-c3cncc(Cl)c3)ccc2N(C2CC2)S(C)(=O)=O)c(C)c1`
Reply: 1000 to 10000 nM

Query: Please give the measured EC50 for this compound: `Cc1nc(C(F)F)nc(C)c1Oc1nc(-c2cncc(Cl)c2)ccc1NS(C)(=O)=O`
Reply: < 1000 nM
